Assign pIC50 to each entry below.
# study target: FLAG-tagged Vanin-1 (AA 22-493, T26I) (Homo sapiens, UniProt O95497, T26I)
# Construct: FLAG-tagged Vanin-1 (AA 22-493, T26I, produced internally); FLAG
# Sequence (O95497 22-493 T26I): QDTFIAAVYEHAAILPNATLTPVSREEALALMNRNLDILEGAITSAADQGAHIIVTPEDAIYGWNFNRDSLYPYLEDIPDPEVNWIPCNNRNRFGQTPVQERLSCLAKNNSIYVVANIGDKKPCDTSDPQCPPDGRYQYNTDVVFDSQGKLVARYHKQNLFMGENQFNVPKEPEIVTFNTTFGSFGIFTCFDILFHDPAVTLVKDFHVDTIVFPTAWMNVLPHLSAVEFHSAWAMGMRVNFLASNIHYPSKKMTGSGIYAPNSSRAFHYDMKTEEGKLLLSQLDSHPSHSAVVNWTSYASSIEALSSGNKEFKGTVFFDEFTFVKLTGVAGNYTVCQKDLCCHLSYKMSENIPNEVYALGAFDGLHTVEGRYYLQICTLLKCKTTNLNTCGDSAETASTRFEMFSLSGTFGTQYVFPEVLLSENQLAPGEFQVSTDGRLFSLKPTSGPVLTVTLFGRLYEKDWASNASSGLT
# assay comment: Vanin-1 enzymatic assay
# experimental parameters: 0.1 nM Vanin-1, 3 μM D-pantethine, pantothenic acid formation by RapidFire MS; geometric mean if multiple measurements; read-out: VNN-1 IC50
Bear in mind: pIC50 is minus log10 of a mol/L concentration; give just that figure.

Inquiry: Requested field: pIC50. Item: CN(c1ncccn1)[C@H]1CCN(C(=O)c2ccc(NCc3cccnc3)nc2)C1 [Example 8.5]
Reply text: 9.85

Inquiry: Also CC(=O)N(C)[C@H]1CCN(C(=O)c2ccc(NCc3cccc(C#N)c3)nc2)C1 [Example 1.1] , if possible.
Reply text: 8.90

Inquiry: Also COc1ccncc1CNc1ccc(C(=O)N2CC[C@H](N(C)C(=O)C3CC3)C2)cn1 [Example 1.10] , if possible.
Reply text: 9.85

Inquiry: Also CC(=O)N(C)[C@H]1CCN(C(=O)c2ccc(NC(C)c3cccc(C#N)c3)nc2)C1 (some centres unmarked) [Example 1.40] , if possible.
Reply text: 9.17

Inquiry: Also CC1(C#N)CCN(C(=O)c2ccc(NCc3cccnc3)nc2)C1 (centres unmarked) [Example 3.3] , if possible.
Reply text: 9.62

Inquiry: Also CC(=O)N(C)[C@H]1CCN(C(=O)c2ccc(NC3(c4ccccc4)CCC3)nc2)C1 [Example 4.6] , if possible.
Reply text: 9.68

Inquiry: Also CC(=O)Nc1cccc(C(C)Nc2ccc(C(=O)N3CC[C@H](N(C)C(C)=O)C3)cn2)c1 (some centres unmarked) [Example 1.36] , if possible.
Reply text: 9.27

Inquiry: Also CC(C)(Nc1ccc(C(=O)N2CC[C@H](N3CCCC3=O)C2)cn1)c1ccccc1 [Example 4.2] , if possible.
Reply text: 10.00

---

# study target: FLAG-tagged Vanin-1 (AA 22-493, T26I) (Homo sapiens, UniProt O95497, T26I)
# Construct: FLAG-tagged Vanin-1 (AA 22-493, T26I, produced internally); FLAG
# assay comment: Vanin-1 enzymatic assay
# experimental parameters: 0.1 nM Vanin-1, 3 μM D-pantethine, pantothenic acid formation by RapidFire MS; geometric mean if multiple measurements; read-out: VNN-1 IC50
# Procedure: The test compounds are dissolved in 100% DMSO at a concentration of 10 mM and in a first step diluted in DMSO to a concentration of 5 mM, followed by serial dilution steps in 100% DMSO. Dilution factor and number of dilution steps may vary according to needs. Typically 8 different concentrations by 1:5 dilutions are prepared, a further intermediate dilutions of the substances is carried out with assay buffer resulting in 1% final DMSO concentration in the assay. […]
Assign IC50 to each entry below.
Quote the value and follow it with the unit of measurement.

Inquiry: Identify the measured IC50 of `CN(C)c1ccc(CNc2ccc(C(=O)N3CC[C@H](N(C)C(=O)C4CC4)C3)cn2)cn1` for FLAG-tagged Vanin-1 (AA 22-493, T26I) (Homo sapiens, UniProt O95497, T26I).
Reply text: 0.91 nM

Inquiry: Also `CN(C(=O)C1(C)CCC1)[C@H]1CCN(C(=O)c2ccc(NCc3cnccc3C(F)(F)F)nc2)C1` , if possible.
Reply text: 0.66 nM

Inquiry: Also `CN(C)c1ccc(CNc2ccc(C(=O)N3CC[C@H](N(C)C(=O)C4(C)CCC4)C3)cn2)cn1` , if possible.
Reply text: 0.96 nM

Inquiry: Also CC(=O)N(C)[C@H]1CCN(C(=O)c2ccc(NC(C)c3nccs3)nc2)C1 (single isomer, unassigned) [Example 5.1.B] , if possible.
Reply text: 0.94 nM

Inquiry: Also `CC(=O)N(C)[C@H]1CCN(C(=O)c2ccc(NCc3ccc(N)nc3)nc2)C1` , if possible.
Reply text: 0.47 nM

Inquiry: Also `CN(C(=O)C1(C)CCC1)[C@H]1CCN(C(=O)c2ccc(NCc3ccc(Cl)nc3)nc2)C1` , if possible.
Reply text: 0.32 nM

Inquiry: Also `C[C@@H](Nc1ccc(C(=O)N2CC[C@H](N(C)C(=O)C3(C)CCC3)C2)cn1)c1cnccn1` , if possible.
Reply text: 0.4 nM

Inquiry: Also `C[C@H](Nc1ccc(C(=O)N2CC[C@H](N(C)C(=O)C3(C)CCC3)C2)cn1)c1cnccn1` , if possible.
Reply text: 4.33 nM

Inquiry: Also `CN(C(=O)C1CC1)[C@H]1CCN(C(=O)c2ccc(NCc3cncc(F)c3)nc2)C1` , if possible.
Reply text: 0.65 nM

Inquiry: Also `CC(=O)N(C)[C@H]1CCN(C(=O)c2ccc(NCc3cc(CC(C)C)n[nH]3)nc2)C1` , if possible.
Reply text: 8.83 nM

Inquiry: Also `CC(=O)N(C)[C@H]1CCN(C(=O)c2ccc(NCc3ccccc3Cl)nc2)C1` , if possible.
Reply text: 0.48 nM

Inquiry: Also CC(=O)N(C)[C@H]1CCN(C(=O)c2ccc(NC(C)c3cccnc3)nc2)C1 (single isomer, unassigned) [Example 6.1.B] , if possible.
Reply text: 1.43 nM

Inquiry: Also `O=C(c1ccc(NCc2ccc(Cl)cc2)nc1)N1CC[C@H](N2CCOC2=O)C1` , if possible.
Reply text: 0.41 nM

Inquiry: Also `CC(=O)N(C)[C@H]1CCN(C(=O)c2ccc(N[C@@H](C)c3ccc(Cl)cc3)nc2)C1` , if possible.
Reply text: 0.27 nM

Inquiry: Also `CC(=O)N(C)[C@H]1CCN(C(=O)c2ccc(N[C@@H](C)c3cccc(S(N)(=O)=O)c3)nc2)C1` , if possible.
Reply text: 0.22 nM

Inquiry: Also `CC(=O)N(C)[C@H]1CCN(C(=O)c2ccc(N[C@@H](C)c3ccc(F)cc3F)nc2)C1` , if possible.
Reply text: 0.42 nM

Inquiry: Also CC(=O)N(C)[C@H]1CCN(C(=O)c2ccc(NC(C)c3ccccc3)nc2)C1 (stereo partly drawn) , if possible.
Reply text: 0.72 nM

Inquiry: Also `CC(=O)N(C)[C@H]1CCN(C(=O)c2ccc(NCc3cncc(F)c3)nc2)C1` , if possible.
Reply text: 0.86 nM
